System Tested: Human TRPA1 (Homo sapiens, UniProt O75762)
Construct: expressed in transfected cells; host or cells: CHO cells
Sequence (O75762 whole entry): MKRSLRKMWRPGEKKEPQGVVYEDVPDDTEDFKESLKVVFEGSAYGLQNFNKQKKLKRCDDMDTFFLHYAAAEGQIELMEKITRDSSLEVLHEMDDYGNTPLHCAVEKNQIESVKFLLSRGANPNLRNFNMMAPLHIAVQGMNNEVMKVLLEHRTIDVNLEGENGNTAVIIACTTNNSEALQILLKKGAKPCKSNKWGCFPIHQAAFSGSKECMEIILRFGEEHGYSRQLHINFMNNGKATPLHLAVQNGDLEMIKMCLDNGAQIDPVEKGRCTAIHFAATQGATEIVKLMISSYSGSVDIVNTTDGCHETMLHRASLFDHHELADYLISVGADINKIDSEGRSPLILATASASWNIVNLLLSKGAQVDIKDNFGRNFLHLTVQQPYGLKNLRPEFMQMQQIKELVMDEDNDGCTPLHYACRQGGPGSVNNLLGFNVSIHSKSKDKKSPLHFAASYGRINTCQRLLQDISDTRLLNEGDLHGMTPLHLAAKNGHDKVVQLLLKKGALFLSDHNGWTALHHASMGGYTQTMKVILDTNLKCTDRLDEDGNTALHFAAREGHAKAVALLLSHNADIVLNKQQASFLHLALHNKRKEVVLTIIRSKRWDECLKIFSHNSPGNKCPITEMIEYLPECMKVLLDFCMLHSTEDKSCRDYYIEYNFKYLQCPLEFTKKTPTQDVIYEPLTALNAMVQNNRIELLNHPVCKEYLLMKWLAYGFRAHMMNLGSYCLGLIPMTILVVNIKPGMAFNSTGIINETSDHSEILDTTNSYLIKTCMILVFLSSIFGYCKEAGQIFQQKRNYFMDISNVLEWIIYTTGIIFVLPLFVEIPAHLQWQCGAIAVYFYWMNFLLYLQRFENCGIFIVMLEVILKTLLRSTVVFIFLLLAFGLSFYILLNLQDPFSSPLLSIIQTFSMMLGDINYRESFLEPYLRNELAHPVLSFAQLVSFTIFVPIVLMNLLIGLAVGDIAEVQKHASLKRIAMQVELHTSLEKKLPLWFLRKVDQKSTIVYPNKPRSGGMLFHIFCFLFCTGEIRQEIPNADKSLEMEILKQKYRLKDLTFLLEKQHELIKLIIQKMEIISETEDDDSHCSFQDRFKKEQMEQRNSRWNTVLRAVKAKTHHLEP
Assay: 45Calcium uptake assay: inhibition of AITC induced cellular uptake of radioactive calcium
Type: cell-based
Setup Conditions: 10.0 μM test compound; AITC (30 μM) induced 45Ca uptake; Human TRPA1 expressing CHO cells; read-out: Percentage inhibition at 10.0 μM

| Compound | Measure Unit | inhibition at 10 µM |
| --- | --- | --- |
| Cn1nc2c(c1CC(=O)Nc1nc(-c3ccc(C(F)(F)F)c(F)c3)c[nH]1)c(=O)n(C)c(=O)n2C [Example 85] | % | 78.2 |
| CC(C)COc1c(F)cc(-c2csc(NC(=O)Cn3ncc4c3c(=O)n(C)c(=O)n4C)n2)cc1F [Example 74] | % | 98.8 |
| Cn1c(=O)c2c(ccn2CC(=O)Nc2nc(-c3cc(Cl)c(OCCC(F)(F)C(F)(F)F)c(Cl)c3)cs2)n(C)c1=O [Example 15] | % | 92.5 |
| Cc1cc2c(c(=O)n(C)c(=O)n2C)n1CC(=O)Nc1nc(-c2cc(F)c(OCC3CCC3)c(F)c2)cs1 [Example 27] | % | 99.2 |
| Cc1cc2c(c(=O)n(C)c(=O)n2C)n1CC(=O)Nc1nc(-c2cc(Cl)c(OCC(C)(C)C)c(Cl)c2)cs1 [Example 29] | % | 97.1 |
| Cn1c(=O)c2c(ccn2CC(=O)Nc2nc(-c3ccc(C(F)(F)F)c(F)c3)cs2)n(C)c1=O [Example 3] | % | 98.8 |
| Cn1nc2c(c1CC(=O)Nc1nc(-c3ccc(F)c(OC(F)(F)F)c3)cs1)c(=O)n(C)c(=O)n2C [Example 60] | % | 97.2 |
